system: BT-549 breast; assay: NCI-60 one-dose screen, 48 h (100 = growth as untreated, 0 = no growth, -100 = all killed); settings: 10 µM
About 83,000 compounds went through this panel and 20% of them were active in at least one assay; those are over-represented in the sample as a whole.
quantityKind: growth (%)
The reply should be a number in %, with the unit left off.

O=C(O)CCCCNC(=O)c1ccccc1 = 103
Cc1nc2c(ccc3ccccc32)s1 = 109
O=C(O)CCCc1ccccc1 = 105
O=C(Cc1ccccc1)Cc1ccccc1 = 107

Query: Request the reported growth associated with O=C(O)CCCC(=O)O
Result: 118

Query: Next compound up: CCOc1ccc(/C=C/C(=O)c2ccccc2)cc1
Result: 102

Query: Next compound up: COc1cc(C(N)=O)cc(OC)c1OC
Result: 108

Query: Next compound up: C=C1CC/C=C(\C)C(=O)C[C@@H]2[C@@H]1CC2(C)C
Result: 105

Query: Next compound up: Nc1ccc(N)c([N+](=O)[O-])c1
Result: 96.9

Query: Next compound up: O=c1cc2oc3cc(O)c(O)cc3c(-c3ccccc3O)c-2cc1O
Result: 77.7

Query: Next compound up: CC1CCCC(CC(N)=O)CC1 (configuration not stated)
Result: 116

Query: Next compound up: O=c1cc(-c2ccccc2)[nH]c(=S)[nH]1
Result: 97.5

Query: Next compound up: Cc1cc(C)c(CC(=O)O)c(C)c1
Result: 104

Query: Next compound up: O=[N+]([O-])c1ccc(Sc2ccncn2)c([N+](=O)[O-])c1
Result: 74.9

Query: Next compound up: O=C(CCl)Nc1ccc2c(c1)C(=O)c1ccc(NC(=O)CCl)cc1C2=O
Result: -91

###

System: HOP-92 NSCLC
Experiment: NCI-60 one-dose screen, 48 h (100 = growth as untreated, 0 = no growth, -100 = all killed)
Conditions: 10 µM
Experimental: Growth inhibition of the HOP-92 human Non-Small Cell Lung tumor cell line is measured as a screen for anti-cancer activity. Cells are grown in 96 well plates and exposed to the test compound for 48 hours. Compounds are tested at a single concentration, which is 10^-5 M for most compounds. The reported endpoint is percent growth (GI% or GIPRCNT), where numbers from 0 - 100% represent growth inhibition, and numbers from -100% - 0 represent cell death. […]
The panel holds about 83,000 compounds, 20% with a hit somewhere; the sample as a whole holds those more often.
growth reference
The reply should be a number in %, with the unit left off.

CCN(CC)CCCC(C)Nc1ccnc(/C=C/c2ccc(Cl)cc2)c1 (centres undefined) = -19.8
Cc1cc(C(O)(c2ccc(Nc3ccccc3)cc2)c2ccc(Nc3ccc(S(=O)(=O)O)cc3)cc2)ccc1N (centres undefined) = -23.8

Kindly review the next compound as well.
Query: Request the reported growth associated with CCOC(=O)c1[nH]c(C)c(C(=O)O)c1C
Result: 104

###

growth reference
test system: SN12C renal; experiment: NCI-60 one-dose screen, 48 h (100 = growth as untreated, 0 = no growth, -100 = all killed); conditions: 10 µM
This is part of a sample that, as a whole, favours compounds with a hit. Of some 83,000 tested, about 20% had one in any assay.
The reply should be a number in %, with the unit left off.

CN(C)C(=O)Oc1cccc([N+](C)(C)C)c1 = 97.8
OC(c1ccccn1)C(O)c1ccccn1 (configuration not stated) = 91.5
c1c(-c2cc(C3CC3)[nH]n2)n[nH]c1C1CC1 = 102
C/C(=N\O)C1(O)CCCCC1 = 101
NC(=S)NN=C1CCCC1 = 94.5

Query: Request the reported growth associated with COc1ccc(/C=C/c2cccc[n+]2C)cc1
Result: 110

Query: Next molecule up: CCCCOC(=O)c1ccc(C(C)C)cc1
Result: 102

###

test system: KM12 colon; assay: NCI-60 one-dose screen, 48 h (100 = growth as untreated, 0 = no growth, -100 = all killed); conditions: 10 µM
Compounds without any hit were thinned out: in the full panel of roughly 83,000, 20% have a hit.
growth reference
The reply should be a number in %, with the unit left off.

Check out these entries, answers already filled in.
O=C(O)CCC(=O)OC(C1CO1)C(OC(=O)CCC(=O)O)C1CO1 (configuration not stated) = 101
CCN1C(=O)/C(=C/C=C/N(C)c2ccccc2)SC1=S = 106
Cc1cc2nc(CC(=O)c3cccc([N+](=O)[O-])c3)c(=O)[nH]c2cc1C = 86.6
CC(=O)OCC1CCCO1 (configuration not stated) = 102
Brc1cnc2ccccc2c1 = 100
CC(=O)c1cc2c(cc1F)C(C)(C)CCC2(C)C = 107
OCC(O)C(O)C(O)C(O)/C=N/O (configuration not stated) = 101
C/C=C/CC(C)C(O)C1C(=O)NC(CC)C(=O)N(C)CC(=O)N(C)C(CC(C)C)C(=O)NC(C(C)C)C(=O)N(C)C(CC(C)C)C(=O)NC(C)C(=O)NC(C)C(=O)N(C)C(CC(C)C)C(=O)N(C)C(CC(C)C)C(=O)N(C)C(C(C)C)C(=O)N1C (configuration not stated) = 17.7

Query: Request the reported growth associated with CC(=O)Cc1ccc(-c2ccccc2)cc1
Result: 101

Query: Next compound up: O=[N+]([O-])c1ccc(/C=C/C=C/c2ccccc2)c(Cl)c1
Result: 94.5

Query: Next compound up: O=C1Cc2cc(O)ccc2O1
Result: 112

###

system: A549/ATCC NSCLC; test: NCI-60 one-dose screen, 48 h (100 = growth as untreated, 0 = no growth, -100 = all killed); conditions: 10 µM
About 83,000 compounds went through this panel and 20% of them were active in at least one assay; those are over-represented in the sample as a whole.
quantityKind: growth (%)
The reply should be a number in %, with the unit left off.

NC(=O)NC(=O)c1ccc(Cl)cc1 = 108
CC1C(=O)c2ccccc2CC1C(=O)O (centres undefined) = 93.8
CCCC(=O)Nc1ccc2c(c1)CN1C(=O)c3ccccc3C1=N2 = 90

Query: Request the reported growth associated with O=C(O)C(O)c1ccccc1 (centres undefined)
Result: 105

Query: Next compound up: COC(=O)C(C)Oc1ccc(OC#N)cc1 (centres undefined)
Result: 99.4

Query: Next compound up: CC(=O)OCCC(C)CCC=C(C)C (centres undefined)
Result: 101

Query: Next compound up: COc1cccc(COC(=O)Nc2ccccc2)c1OC
Result: 94.5

Query: Next compound up: O=c1cc(-c2ccccc2)nc2cc(-c3ccco3)[nH]n12
Result: 56.7

Query: Next compound up: CCN=c1cc2sc3cc(NCC)c(C)cc3nc-2cc1C
Result: -40.3

Query: Next compound up: O=C1c2ccccc2C(=O)c2c1ccc(C(=O)O)c2[N+](=O)[O-]
Result: 103

Query: Next compound up: CCOC(=O)c1[nH]c(C)c(C(=O)O)c1C
Result: 76.2

Query: Next compound up: NC(C(=O)O)C(O)c1ccco1 (centres undefined)
Result: 102

Query: Next compound up: CC1(C)N=C(N)N=C(N)N1c1cccc(Br)c1
Result: 30.6

Query: Next compound up: CCOC(=O)Nc1nn[nH]n1
Result: 103

Query: Next compound up: O=C(O)c1cccc([N+](=O)[O-])c1O
Result: 111

Query: Next compound up: CNC(=S)NC(C)(C)C
Result: 98.3

Query: Next compound up: CCCCOC(=O)c1ccc(C(C)C)cc1
Result: 77

Query: Next compound up: OCCN(CCO)C(=S)S
Result: 94

Query: Next compound up: O=c1[nH][nH]c(=O)c2cc([N+](=O)[O-])ccc12
Result: 108

Query: Next compound up: CCCCCCCO
Result: 102

Query: Next compound up: [O-][N+](=Nc1cccc(Cl)c1)c1cccc(Cl)c1
Result: 95.1

###

tested on: SK-OV-3 ovarian; test: NCI-60 one-dose screen, 48 h (100 = growth as untreated, 0 = no growth, -100 = all killed); conditions: 10 µM
Compounds without any hit were thinned out: in the full panel of roughly 83,000, 20% have a hit.
growth reference
The reply should be a number in %, with the unit left off.

Oc1ccccc1O = 120
CCCCC(O)c1ccccc1 (configuration not stated) = 95.4
COC(=O)C(C)Oc1ccc(OC#N)cc1 (configuration not stated) = 103
CCCNC(=O)c1ccc(S(N)(=O)=O)cc1 = 105
O=C(NCO)c1ccccc1 = 104
Cc1cc(Cc2cc(C)c(N)cc2N)c(N)cc1N = 82.2
COc1cc(/C=C(\C#N)C(=O)c2ccccc2)ccc1OCc1ccccc1 = 107
COc1cc2cc(c1Cl)N(C)C(=O)C[C@H](OC(=O)[C@H](C)N(C)C(C)=O)[C@]1(C)O[C@H]1[C@H](C)[C@@H]1C[C@@](O)(NC(=O)O1)[C@H](OC)C=C/C=C(\C)C2 = 36.1

Query: Request the reported growth associated with CC(=O)OC1CC2C(C)(C)OC3CC(=O)OCC32C2CCC3(C)C(=CCC3c3ccoc3)C12C (configuration not stated)
Result: 108

Query: Next molecule up: CCN=c1cc2sc3cc(NCC)c(C)cc3nc-2cc1C
Result: 16.1

Query: Next molecule up: CC(=O)OCCC(C)CCC=C(C)C (configuration not stated)
Result: 111

Query: Next molecule up: CCOC(=O)Nc1cc2c(c(N)n1)N=C(c1ccccc1)CO2
Result: 22.8

Query: Next molecule up: c1ccc(/C(=N\N=C(/c2ccccc2)c2cccs2)c2cccs2)cc1
Result: 105

Query: Next molecule up: CC1CC(O)CC(C)(C)C1 (configuration not stated)
Result: 103

Query: Next molecule up: O=C1c2ccccc2C(=O)N1OCc1ccccc1
Result: 99.2

Query: Next molecule up: Cc1ccc(C)n1-c1ccsc1C(=O)NNC(=O)C(Cl)Cl
Result: 95.7
